- System under test: MAP4K4 (human)
- Test name: radiometric filter-binding kinase assay, Kinase HotSpot
- Experimental setup: compound 0.5 µM; ATP 10 µM
residual activity reference
Observation type: residual activity (%)

# Cpd smiles, Assay result
rows = [
    ("CCN(CC)CCCCN1c2ccccc2Oc2ccc(Cl)cc21", 104),
    ("O=C1NC(=O)/C(=C\\c2ccc3nccnc3c2)S1", 80.9),
    ("O=C(CCCc1ccc(-c2ccccc2F)cc1)Nc1ccc(O)cc1", 92.9),
    ("O=C1Cc2c([nH]c3ccc(Br)cc23)-c2ccccc2N1", 6.61),
    ("O=C1NC(=O)C(c2c[nH]c3ccccc23)=C1c1c[nH]c2ccccc12", 58.5),
]
